Origin of measurements: the RNAGym collection of RNA variant scans (doi:10.7554/elife.80360)

B1: CPEB3 Ribozyme (parent)
chain: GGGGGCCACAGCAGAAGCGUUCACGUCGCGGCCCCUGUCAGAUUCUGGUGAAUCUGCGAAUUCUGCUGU

Variants of: B1
Test: self-cleavage, relative activity (ratio to wild type); higher = more cleavage; co-transcriptional
RESULT_TYPE: self-cleavage

# input variant: GGGGGCCACAGCAGAAGCGUUCACGUCGCGGCACCUGUCAGAUUCUGGUGAAUCUGCGAAUUCUGCUGA [C33A U69A] ; wanted: its self-cleavage
1

# input variant: GGGGGCCACAGCAGAAGCGUUCACGUCGCGGCCGCUGUCAGAUUCUGGUGAAUCCGCGAAUUCUGCUGU [C34G U55C] ; wanted: its self-cleavage
0.327

# input variant: GGGGGCCACAGCAGAAGCGUUCACGUCGCGGCCCCUGUCAGAUUCUUGUGAAUCCGCGAAUUCUGCUGU [G47U U55C] ; wanted: its self-cleavage
0.979

# input variant: GGGUGCCACAGCAGAAGCGUUCACGUCGCGGCCCCUGUUAGAUUCUGGUGAAUCUGCGAAUUCUGCUGU [G4U C39U] ; wanted: its self-cleavage
0.376

# input variant: GGGGGCCACAGCAGAAGCGUUCACGUCGCGGCCCCUGUCAGAUUCUGGUGCAUCUGCGAAUUCUUCUGU [A51C G65U] ; wanted: its self-cleavage
0.729

# input variant: GGGGGCCACAGCAGAAGCGUUCACGUCGCGGCCCCUGUUAGAUUCUGGCGAAUCUGCGAAUUCUGCUGU [C39U U49C] ; wanted: its self-cleavage
0.927

# input variant: GGGGGCCACAGCAGAAGCGUUCACGUAGCGGCCCCUGUCAGAUUCUAGUGAAUCUGCGAAUUCUGCUGU [C27A G47A] ; wanted: its self-cleavage
0.734

# input variant: GGGGGCCACAGCAGAACCGUUCACGUCGCGGCCCGUGUCAGAUUCUGGUGAAUCUGCGAAUUCUGCUGU [G17C C35G] ; wanted: its self-cleavage
0.153

# input variant: GGGGGCCCCAGCAGAAGCGUUCACGUCACGGCCCCUGUCAGAUUCUGGUGAAUCUGCGAAUUCUGCUGU [A8C G28A] ; wanted: its self-cleavage
0.215

# input variant: GGGGGCCACAGCAGAAGCGUUCACGUCGUGGCCCCUGUCAUAUUCUGGUGAAUCUGCGAAUUCUGCUGU [C29U G41U] ; wanted: its self-cleavage
0.191

# input variant: GUGGGCCACAGCAGGAGCGUUCACGUCGCGGCCCCUGUCAGAUUCUGGUGAAUCUGCGAAUUCUGCUGU [G2U A15G] ; wanted: its self-cleavage
0.0981

# input variant: GGGGGCCACAGCAGAAGCGUUCACGUCGCGGCCCCUAUCAGAUUCUGGUGAAUGUGCGAAUUCUGCUGU [G37A C54G] ; wanted: its self-cleavage
0.221

# input variant: GGGGGCCACAGCAGAAGCGGUCACGUCGCGGCCCCUGUCAGAUUCUGGUGAAUCUGCGAAUUCUGGUGU [U20G C66G] ; wanted: its self-cleavage
0.15

# input variant: GGGGGCCACAGCAGAAGCGUUCACGUCGCGGCCCCUGUCAGAUUUUGGUGAAUGUGCGAAUUCUGCUGU [C45U C54G] ; wanted: its self-cleavage
0.785

# input variant: GGGGGCCACAGCAGACGCGUUCACGUCGCGGCCCCUGUCACAUUCUGGUGAAUCUGCGAAUUCUGCUGU [A16C G41C] ; wanted: its self-cleavage
0.18

# input variant: GGGUGCCACGGCAGAAGCGUUCACGUCGCGGCCCCUGUCAGAUUCUGGUGAAUCUGCGAAUUCUGCUGU [G4U A10G] ; wanted: its self-cleavage
0.784

# input variant: GGGGGCCACAGCAGAAGCGUUCACGUCGCGGCCCCUGUCAGAUUCUGGUGGAUCUGCGCAUUCUGCUGU [A51G A59C] ; wanted: its self-cleavage
0.747

# input variant: GGCGGCCACAGCAGAAGCGUUCACGUCGCGGCCCAUGUCAGAUUCUGGUGAAUCUGCGAAUUCUGCUGU [G3C C35A] ; wanted: its self-cleavage
0.0343

# input variant: GGGGGUCACAGCAGAAGCGUUCACGUCGCGGCCCCUGUCAGAUUCUGGUGAAUUUGCGAAUUCUGCUGU [C6U C54U] ; wanted: its self-cleavage
1.03

# input variant: GGGGGCCACAGCAGAAGCGUUCACGUUGCGGCCCCUGUCAGAUUCUGGUGAAUCUGCGAUUUCUGCUGU [C27U A60U] ; wanted: its self-cleavage
0.205

# input variant: GGGGGCCACAGCAGAAGCGUUCACGUCGCGGCCCCUGGCAGAUUCUGGUGAAUCUGCUAAUUCUGCUGU [U38G G58U] ; wanted: its self-cleavage
0.294

# input variant: GGGGGCCACAGCAGAAUCGUCCACGUCGCGGCCCCUGUCAGAUUCUGGUGAAUCUGCGAAUUCUGCUGU [G17U U21C] ; wanted: its self-cleavage
0.14

# input variant: GGGGGCCACAGCAGCAGCGUGCACGUCGCGGCCCCUGUCAGAUUCUGGUGAAUCUGCGAAUUCUGCUGU [A15C U21G] ; wanted: its self-cleavage
0.157

# input variant: GGGGGCCACAGCAGAAGCGUUCACGUCGCGGCCCCUGUCACAUUCUGGUGAAUCAGCGAAUUCUGCUGU [G41C U55A] ; wanted: its self-cleavage
0.549

# input variant: GGGGACCACAGCAGAAGCGUUCACGUCGCGGCCUCUGUCAGAUUCUGGUGAAUCUGCGAAUUCUGCUGU [G5A C34U] ; wanted: its self-cleavage
0.599

# input variant: GGGGGCCACAGCAUCAGCGUUCACGUCGCGGCCCCUGUCAGAUUCUGGUGAAUCUGCGAAUUCUGCUGU [G14U A15C] ; wanted: its self-cleavage
0.415

# input variant: GGGGGGCACAGCAGAGGCGUUCACGUCGCGGCCCCUGUCAGAUUCUGGUGAAUCUGCGAAUUCUGCUGU [C6G A16G] ; wanted: its self-cleavage
0.127

# input variant: GGGGUCCACAGCAGUAGCGUUCACGUCGCGGCCCCUGUCAGAUUCUGGUGAAUCUGCGAAUUCUGCUGU [G5U A15U] ; wanted: its self-cleavage
0.092

# input variant: GCGGGCCACAGCAGAAGCGUUCACGUCGCGGCCCCUCUCAGAUUCUGGUGAAUCUGCGAAUUCUGCUGU [G2C G37C] ; wanted: its self-cleavage
0.0304

# input variant: GGGGGCCACAGCAGAAGCGUUCACGUCGCGGCCCCUGUCAGAUUCUGGUGAAUCUGCGCAUUCUACUGU [A59C G65A] ; wanted: its self-cleavage
0.496

# input variant: GGAGGCCACAGCAGAAGCGUUCACGUCGCGGCCCCUGUCAGAUUCUGGUUAAUCUGCGAAUUCUGCUGU [G3A G50U] ; wanted: its self-cleavage
0.582

# input variant: GGGGGCCACAGCAAGAGCGUUCACGUCGCGGCCCCUGUCAGAUUCUGGUGAAUCUGCGAAUUCUGCUGU [G14A A15G] ; wanted: its self-cleavage
0.823

# input variant: GGGGGCCACAGCAGAAGCGUUCAUGUCGCGGCCCCUGUCAGCUUCUGGUGAAUCUGCGAAUUCUGCUGU [C24U A42C] ; wanted: its self-cleavage
0.673

# input variant: GGGGGCCACAGCAGAAGCGUUCACGUCGCCGCCCCUGUCAGAUUCUGGUGAAUCUCCGAAUUCUGCUGU [G30C G56C] ; wanted: its self-cleavage
0.236

# input variant: GGUGGCCACAGCAGAAGCGUUCACGUCGCGGCCCCUGUCAGAUUCUGGUGAAUCUGGGAAUUCUGCUGU [G3U C57G] ; wanted: its self-cleavage
0.0443

# input variant: GGGGGCCAUAGCAGAAGCGUUCACGUCGCGGCCCCUGUCAGAUUCUGGUGAAUCUGCUAAUUCUGCUGU [C9U G58U] ; wanted: its self-cleavage
1.02

# input variant: GGGGGCCACAGCCGAAGCGUUCACGUCGCGGCCCCUGUCAGAUUCUGGUGAAUCUGUGAAUUCUGCUGU [A13C C57U] ; wanted: its self-cleavage
0.248

# input variant: GGGGGCCACAGCAGAUGCGUUCACGUCGCGGCCCCUGUCAGAUUCUGGUGAAUCUGAGAAUUCUGCUGU [A16U C57A] ; wanted: its self-cleavage
0.293

# input variant: GGGGGCCACAGCAGAAGCGUUCACGUCGAGGCCCCUGUCAGACUCUGGUGAAUCUGCGAAUUCUGCUGU [C29A U43C] ; wanted: its self-cleavage
0.465

# input variant: GGGGGCCACAGCAGAAGCGUUCACGUCGCGGCCCCUGUCAGGUUCUGGUGAAUCUGCGAAUUCUGCUGA [A42G U69A] ; wanted: its self-cleavage
1.01

# input variant: GGGGGCCACAGCAGAAGCGUUCACGUCGCGGCCCCUGUCAGCUUCUGGUGAACCUGCGAAUUCUGCUGU [A42C U53C] ; wanted: its self-cleavage
0.939

# input variant: GGGGGCCACAGGAGAAGCGUUCGCGUCGCGGCCCCUGUCAGAUUCUGGUGAAUCUGCGAAUUCUGCUGU [C12G A23G] ; wanted: its self-cleavage
0.721

# input variant: GGGGGCCACAGCAGAAGCGUUUACGUCGCGGCCCCUGUCAGAUUCUGGUGAAUUUGCGAAUUCUGCUGU [C22U C54U] ; wanted: its self-cleavage
0.349

# input variant: GGGGGCCACAGCAGAAGCGUUCACGUCGCGGCUCCUGUCAGAUUCUGGUGAAUCUGAGAAUUCUGCUGU [C33U C57A] ; wanted: its self-cleavage
0.323

# input variant: GGGGGCCACAGCAGAAGCGUUCACGUCGCGGCGCCUCUCAGAUUCUGGUGAAUCUGCGAAUUCUGCUGU [C33G G37C] ; wanted: its self-cleavage
0.16

# input variant: GGGGGCGACAGCAGAAGCGUUCACGUCGCGGCUCCUGUCAGAUUCUGGUGAAUCUGCGAAUUCUGCUGU [C7G C33U] ; wanted: its self-cleavage
0.253

# input variant: GGGGGCCACAACAGAAGCGUUCACGUCGCGGCCCCUGUCAGAAUCUGGUGAAUCUGCGAAUUCUGCUGU [G11A U43A] ; wanted: its self-cleavage
0.442

# input variant: GGGGGCCACAGCAGAAGCGUUCACGUCGCGGCCCCUGUCAGAUUCAGGUGAAUCUGCGAAUUAUGCUGU [U46A C63A] ; wanted: its self-cleavage
0.908

# input variant: GGGGGCCACAGCAUAAGCGUUCACGUAGCGGCCCCUGUCAGAUUCUGGUGAAUCUGCGAAUUCUGCUGU [G14U C27A] ; wanted: its self-cleavage
0.172

# input variant: GGGGGCCACAGCAGAAGCGUUCACGUCGCGGCCCCUGUCAUAUUCUGGUGAAACUGCGAAUUCUGCUGU [G41U U53A] ; wanted: its self-cleavage
0.616

# input variant: GGGGGCCACUGCAGAAGCGUUCACGUCGCGGCCCAUGUCAGAUUCUGGUGAAUCUGCGAAUUCUGCUGU [A10U C35A] ; wanted: its self-cleavage
0.245
